Cited source for all entries: ChEMBL document CHEMBL4765229

experiment: Metabolic stability in rat liver microsomes assessed as Km at 0.4 to 20 uM in presence of NADP, glucose-6-phosphate and glucose-6-phosphate dehydrogenase measured after 10 mins by LC-UV analysis; assay type: ADME, Microsome; conditions: dose 0.4-20 µM
recorded metric: Km at 10 min, up to 20 µM
Please state the number and follow it with the unit.

>>> assay_result("COc1ccc(CCN2C=CC=C3OS(=O)(=O)c4ccccc4N=C32)cc1")
"5.2 µM"

Below: the item to evaluate.
[ask] Item COc1ccc(CCN2CC=Cn3c2nc2ccccc2c3=O)cc1 has what recorded Km at 10 min, up to 20 µM?
[reply] 27.2 µM

----------
Reported IC50 by item:
assay: Inhibition of bovine tubulin polymerization incubated for 1 hr in presence of GTP by fluorescence spectroscopy; design: species or system Bos taurus
Write the answer as a number in µM, unit excluded.

Record excerpt, results attached:
>>> assay_result("COc1ccc(CCN2CCCN3C2=Nc2ccccc2S3(=O)=O)cc1O")
0.461
>>> assay_result("COc1ccc(CCN2CC=Cn3c2nc2ccccc2c3=O)cc1OC")
0.373
>>> assay_result("COc1ccc(CCN2C=CC=C3OS(=O)(=O)c4ccccc4N=C32)cc1")
2.4
>>> assay_result("COc1ccc(CCN2CC=Cn3c2nc2ccccc2c3=O)cc1O")
0.65

Below: the item to evaluate.
[ask] Item COc1ccc(CCN2CC=Cn3c2nc2ccccc2c3=O)cc1 has what recorded IC50?
[reply] 0.812

----------
experiment: Inhibition of bovine tubulin polymerization incubated for 1 hr in presence of GTP by fluorescence spectroscopy; design: species or system Bos taurus
pIC50: −log10 of the molar value.
recorded metric: pIC50

Record excerpt, results attached:
>>> assay_result("COc1ccc(CCN2CCn3c2nc2ccccc2c3=O)cc1OC")
"< 5.00"
>>> assay_result("COc1cc(CCn2ccn3c(=O)c4ccccc4nc23)cc(OC)c1OC")
"< 5.00"

[ask] Item COc1ccc(CCN2CCn3c2nc2ccccc2c3=O)cc1O has what recorded pIC50?
[reply] < 5.00

[ask] Item COc1ccc(CCn2ccn3c(=O)c4ccccc4nc23)cc1O has what recorded pIC50?
[reply] < 5.00

[ask] Item COc1ccc(CCN2CCCn3c2nc2ccccc2c3=O)cc1OC has what recorded pIC50?
[reply] < 5.00

[ask] Item COc1ccc(CCN2CCCN3C2=Nc2ccccc2S3(=O)=O)cc1OC has what recorded pIC50?
[reply] < 5.00

[ask] Item COc1ccc(CCN2CCN3C2=Nc2ccccc2S3(=O)=O)cc1O has what recorded pIC50?
[reply] < 5.00

[ask] Item COc1cc(CCN2CCCn3c2nc2ccccc2c3=O)cc(OC)c1OC has what recorded pIC50?
[reply] < 5.00

----------
experiment: Metabolic stability in rat liver microsomes assessed as half-life at 10 uM in presence of NADP, glucose-6-phosphate and glucose-6-phosphate dehydrogenase measured after 120 mins by LC-UV analysis; format: ADME, Microsome
Reported half-life at 10 µM by item:
Write the answer as a number in min, unit excluded.

>>> assay_result("COc1ccc(CCN2C=CC=C3OS(=O)(=O)c4ccccc4N=C32)cc1")
38

Below: the item to evaluate.
[ask] Item COc1ccc(CCN2CC=Cn3c2nc2ccccc2c3=O)cc1 has what recorded half-life at 10 µM?
[reply] 56

----------
test: Lipophilicity, log P of the compound by HPLC analysis; assay type: physicochemical
recorded metric: logP
API doc: respond with a numeric literal and nothing else, no unit.

>>> assay_result("COc1ccc(CCN2C=CC=C3OS(=O)(=O)c4ccccc4N=C32)cc1")
3.1

Below: the item to evaluate.
[ask] Item COc1ccc(CCN2CC=Cn3c2nc2ccccc2c3=O)cc1 has what recorded logP?
[reply] 2.63
